// provenance: patent US8889874B2

// LC50 lookup, one value per entry
Test system: Prostate cancer cell lines
Assay: NCI anticancer screen, SRB assay, panel summary
Type: cell-based, human
Conditions: Homo sapiens, log of concentration leading to 50% net cell death, read-out: mean graph midpoint (MG_MID) of Log10 LC50 (converted)
# output: bare number, implied unit µM

Would you please look over these solved cases?
| COMPOUND | LC50 (µM) |
| --- | --- |
| O=C(/C=C/c1cccc(O)c1)c1cccc(-n2cc(-c3ccc4ccccc4c3)[nH]c2=O)c1 [12b] | 79.4 |
| COc1cc(/C=C/C(=O)c2cccc(-n3cc(-c4ccc(Cl)cc4)[nH]c3=O)c2)ccc1O | 66.1 |

Moving on to another compound below.
Prompt line: Please look at this compound and report its LC50: "O=C(/C=C/c1cccc(O)c1)c1cccc(-n2cc(-c3ccccc3)[nH]c2=O)c1"
Response line: 49

* * *

// GI50 lookup, one value per entry
Test system: HS 578T (breast)
Assay: NCI anticancer screen, SRB assay, 48 h
Type: cell-based, human
Details: Homo sapiens, read-out: pGI50 (-log of molar concentration causing 50% inhibition of net cell growth) (converted)
# output: bare number, implied unit µM

Would you please look over these solved cases?
| MOLECULE | GI50, µM |
| --- | --- |
| O=C(/C=C/c1cccc(O)c1)c1cccc(-n2cc(-c3ccc4ccccc4c3)[nH]c2=O)c1 [12b] | 2 |
| O=C(/C=C/c1cccc(O)c1)c1cccc(-n2cc(-c3ccccc3)[nH]c2=O)c1 [4a] | 6.17 |
| O=C(/C=C/c1cccc(O)c1)c1cccc(-n2cc(-c3ccc(Cl)cc3)[nH]c2=O)c1 [4f] | 3.98 |

Prompt line: Please look at this molecule and report its GI50: COc1ccc(-c2cn(-c3cccc(C(=O)/C=C/c4ccc(O)c(OC)c4)c3)c(=O)[nH]2)cc1 [3b]
Response line: 4.27

Prompt line: Please look at this molecule and report its GI50: COc1cc(/C=C/C(=O)c2cccc(-n3cc(-c4ccccc4)[nH]c3=O)c2)cc(OC)c1OC [5a]
Response line: 3.39

Prompt line: Please look at this molecule and report its GI50: COc1cc(/C=C/C(=O)c2cccc(-n3cc(-c4ccccc4)[nH]c3=O)c2)ccc1O [3a]
Response line: 4.17

Prompt line: Please look at this molecule and report its GI50: COc1cc(/C=C/C(=O)c2cccc(-n3cc(-c4ccc(Cl)cc4)[nH]c3=O)c2)ccc1O [3f]
Response line: 4.68

* * *

// GI50 lookup, one value per entry
Test system: MCF7 (breast)
Experiment: NCI anticancer screen, SRB assay, 48 h
Format: cell-based, human
Conditions: Homo sapiens, 48 h exposure, SRB, read-out: GI50
# output: bare number, implied unit nM

Would you please look over these solved cases?
| COMPOUND | GI50 [nM] |
| --- | --- |
| O=C(/C=C/c1cccc(O)c1)c1cccc(-n2cc(-c3ccc(Cl)cc3)[nH]c2=O)c1 | 1270 |
| COc1ccc(-c2cn(-c3cccc(C(=O)/C=C/c4ccc(O)c(OC)c4)c3)c(=O)[nH]2)cc1 | 3180 |
| O=C(/C=C/c1cccc(O)c1)c1cccc(-n2cc(-c3ccccc3)[nH]c2=O)c1 | 2470 |
| COc1cc(/C=C/C(=O)c2cccc(-n3cc(-c4ccc(Cl)cc4)[nH]c3=O)c2)ccc1O | 2300 |
| O=C(/C=C/c1cccc(O)c1)c1cccc(-n2cc(-c3ccc4ccccc4c3)[nH]c2=O)c1 [12b] | 470 |
| COc1cc(/C=C/C(=O)c2cccc(-n3cc(-c4cc(OC)c(OC)c(OC)c4)[nH]c3=O)c2)cc(OC)c1OC | 470 |

Prompt line: Please look at this compound and report its GI50: "COc1cc(/C=C/C(=O)c2cccc(-n3cc(-c4ccccc4)[nH]c3=O)c2)cc(OC)c1OC"
Response line: 310

Prompt line: Please look at this compound and report its GI50: "COc1cc(/C=C/C(=O)c2cccc(-n3cc(-c4ccccc4)[nH]c3=O)c2)ccc1O"
Response line: 1550

* * *

Tested on: CAKI-1 (renal)
Experiment: NCI anticancer screen, SRB assay, 48 h
Assay type: cell-based, human
Details: Homo sapiens, 48 h exposure, SRB, read-out: GI50
// GI50 lookup, one value per entry
# output: bare number, implied unit nM

| COMPOUND | TESTED ON | REPORTED VALUE |
| --- | --- | --- |
| COc1cc(/C=C/C(=O)c2cccc(-n3cc(-c4ccc(Cl)cc4)[nH]c3=O)c2)ccc1O [3f] | CAKI-1 (renal) | 2640 |

Moving on to another compound below.
Prompt line: Please look at this compound and report its GI50: COc1ccc(-c2cn(-c3cccc(C(=O)/C=C/c4ccc(O)c(OC)c4)c3)c(=O)[nH]2)cc1 [3b]
Response line: 4990

* * *

Test system: Melanoma cancer cell lines
Assay: NCI anticancer screen, SRB assay, panel summary
Assay type: cell-based, human
Details: Homo sapiens; Melanoma panel; log of concentration in mol/L causing 50% inhibition of net cell growth; read-out: mean graph midpoint (MG_MID) of Log10 GI50 (converted)
EXPERIMENTAL READOUT: GI50 (µM)
# output: bare number, implied unit µM

Would you please look over these solved cases?
| MOLECULE | GI50 [µM] |
| --- | --- |
| O=C(/C=C/c1cccc(O)c1)c1cccc(-n2cc(-c3ccc(Cl)cc3)[nH]c2=O)c1 | 2.19 |
| COc1cc(/C=C/C(=O)c2cccc(-n3cc(-c4ccc(Cl)cc4)[nH]c3=O)c2)ccc1O | 2.82 |
| O=C(/C=C/c1cccc(O)c1)c1cccc(-n2cc(-c3ccccc3)[nH]c2=O)c1 | 4.47 |

Moving on to another molecule below.
Prompt line: Please look at this molecule and report its GI50: "COc1cc(/C=C/C(=O)c2cccc(-n3cc(-c4ccccc4)[nH]c3=O)c2)cc(OC)c1OC"
Response line: 1.32

* * *

Tested on: HS 578T (breast)
Test: NCI anticancer screen, SRB assay, 48 h
Type: cell-based, human
Settings: Homo sapiens, 48 h exposure, SRB, read-out: GI50
EXPERIMENTAL READOUT: GI50 (µM)
# output: bare number, implied unit µM

| COMPOUND | GI50 / µM |
| --- | --- |
| COc1cc(/C=C/C(=O)c2cccc(-n3cc(-c4ccccc4)[nH]c3=O)c2)ccc1O | 4.16 |
| O=C(/C=C/c1cccc(O)c1)c1cccc(-n2cc(-c3ccc4ccccc4c3)[nH]c2=O)c1 [12b] | 2.01 |
| COc1cc(/C=C/C(=O)c2cccc(-n3cc(-c4ccc(Cl)cc4)[nH]c3=O)c2)ccc1O | 4.67 |
| O=C(/C=C/c1cccc(O)c1)c1cccc(-n2cc(-c3ccc(Cl)cc3)[nH]c2=O)c1 | 4 |
| O=C(/C=C/c1cccc(O)c1)c1cccc(-n2cc(-c3ccccc3)[nH]c2=O)c1 | 6.14 |
| COc1ccc(-c2cn(-c3cccc(C(=O)/C=C/c4ccc(O)c(OC)c4)c3)c(=O)[nH]2)cc1 | 4.25 |

Moving on to another compound below.
Prompt line: Please look at this compound and report its GI50: "COc1cc(/C=C/C(=O)c2cccc(-n3cc(-c4ccccc4)[nH]c3=O)c2)cc(OC)c1OC"
Response line: 3.41

* * *

Test system: SK-MEL-28 (melanoma)
Experiment: NCI anticancer screen, SRB assay, 48 h
Type: cell-based, human
Conditions: Homo sapiens, read-out: pGI50 (-log of molar concentration causing 50% inhibition of net cell growth) (converted)
Binary call on GI50 with cut-off 2000 nM: strictly below means met, and equality or higher means not met.

These recorded examples may help you get a feel for the data.
| COMPOUND | GROUP LABEL |
| --- | --- |
| O=C(/C=C/c1cccc(O)c1)c1cccc(-n2cc(-c3ccc4ccccc4c3)[nH]c2=O)c1 [12b] | not met |
| COc1cc(/C=C/C(=O)c2cccc(-n3cc(-c4cc(OC)c(OC)c(OC)c4)[nH]c3=O)c2)cc(OC)c1OC [5d] | met |
| COc1cc(/C=C/C(=O)c2cccc(-n3cc(-c4ccccc4)[nH]c3=O)c2)ccc1O [3a] | met |
| COc1cc(/C=C/C(=O)c2cccc(-n3cc(-c4ccccc4)[nH]c3=O)c2)cc(OC)c1OC [5a] | met |
| O=C(/C=C/c1cccc(O)c1)c1cccc(-n2cc(-c3ccc(Cl)cc3)[nH]c2=O)c1 [4f] | not met |

Prompt line: Given the entry O=C(/C=C/c1cccc(O)c1)c1cccc(-n2cc(-c3ccccc3)[nH]c2=O)c1 [4a] , would its reported GI50 be below 2000 nM?
Response line: not met

* * *

Tested on: SF-539 (CNS)
Assay: NCI anticancer screen, SRB assay, 48 h
Assay type: cell-based, human
Conditions: Homo sapiens, 48 h exposure, SRB, read-out: GI50
EXPERIMENTAL READOUT: GI50 (µM)
# output: bare number, implied unit µM

| MOLECULE | TESTED ON | GI50, µM |
| --- | --- | --- |
| COc1ccc(-c2cn(-c3cccc(C(=O)/C=C/c4ccc(O)c(OC)c4)c3)c(=O)[nH]2)cc1 | SF-539 (CNS) | 2.25 |
| COc1cc(/C=C/C(=O)c2cccc(-n3cc(-c4ccc(Cl)cc4)[nH]c3=O)c2)ccc1O | SF-539 (CNS) | 1.78 |
| COc1cc(/C=C/C(=O)c2cccc(-n3cc(-c4ccccc4)[nH]c3=O)c2)ccc1O | SF-539 (CNS) | 1.91 |

Moving on to another molecule below.
Prompt line: Specify the recorded GI50 for "O=C(/C=C/c1cccc(O)c1)c1cccc(-n2cc(-c3ccccc3)[nH]c2=O)c1" , system: SF-539 (CNS).
Response line: 1.98
